biological target: Autotaxin (Homo sapiens, UniProt Q13822); assay: Inhibition of 6x-histidine-tagged human recombinant ATX expressed in HEK293 cells assessed as lysophosphatidulcholine release at 5 uM; format: cell-based
ASSAY_READOUT: inhibition (%)

STRUCTURE_AS_SMILES: COc1cc(/C=C2\SC(=O)N(Cc3ccc(F)cc3C(F)(F)F)C2=O)ccc1OCc1ccc(C(=O)O)cc1
ASSAY_READOUT: inhibition
QUANTITATIVE_RESULT: 13

a = COc1cc(/C=C2\SC(=O)N(Cc3cccnc3)C2=O)ccc1OCc1ccc(C(=O)O)cc1
b = COc1cc(/C=C2\SC(=O)N(Cc3cccc(Br)c3)C2=O)ccc1OCc1ccc(C(=O)O)cc1
c = COc1cc(/C=C2\SC(=O)N(Cc3ccc(C(=O)O)cc3)C2=O)ccc1OCc1ccc(C(=O)O)cc1
Hey, quick one: sort these by inhibition, largest value first please. I would appreciate it if you listed the labels in the requested order.
c, b, a

---

target: Autotaxin (Homo sapiens); experiment: Inhibition of 6x-histidine-tagged human recombinant ATX expressed in HEK293 cells using bisP-nitrophenyl phosphate as a substrate; format: cell-based; conditions: read-out: IC50
pIC50: −log10 of the molar value.
ASSAY_READOUT: pIC50

Sample records with pIC50:
COMPOUND: O=C1S/C(=C\c2ccc(OCc3ccccc3)cc2)C(=O)N1Cc1ccccc1
TEST_SYSTEM: Autotaxin (Homo sapiens)
pIC50: 5.57
--
COMPOUND: COC(=O)c1ccc(COc2ccc(/C=C3\SC(=O)N(Cc4ccccc4)C3=O)cc2OC)cc1
TEST_SYSTEM: Autotaxin (Homo sapiens)
pIC50: 5.57
--
COMPOUND: O=C1S/C(=C\c2ccc(OCc3ccccc3)cc2)C(=O)N1Cc1ccc(F)cc1
TEST_SYSTEM: Autotaxin (Homo sapiens)
pIC50: 6.15

I = CC(C)Cc1ccc(-c2n[nH]c3c2C(c2ccc(N(C)C)cc2)C(C#N)=C(N)O3)cc1 (configuration not stated)
II = COc1cc(/C=C2\SC(=O)N(Cc3ccccc3)C2=O)ccc1OCc1ccc(C(=O)O)cc1
III = COc1cc(/C=C2\SC(=O)N(Cc3ccccc3)C2=O)ccc1OCc1ccccc1
Hey, quick one: sort these by pIC50, largest value first please. I would appreciate it if you listed the labels in the requested order.
I, II, III
(I: 7.34, II: 6.61, III: 4.00)

I = COc1cc(/C=C2\SC(=O)N(Cc3ccc(F)cc3)C2=O)ccc1OCc1ccc(C(=O)O)cc1
II = COc1cc(/C=C2\SC(=O)N(Cc3ccc(F)cc3)C2=O)ccc1OCc1ccccc1
III = COc1cc(/C=C2\SC(=O)N(Cc3ccc(C(C)(C)C)cc3)C2=O)ccc1OCc1ccc(C(=O)O)cc1
IV = O=C(CSc1nc2ccc(N3C(=O)c4ccccc4C3=O)cc2s1)Nc1cccc(Cl)c1
Order the records, beginning with the lowest pIC50 and ending with the highest. I would appreciate it if you listed the labels in the requested order.
III, II, IV, I

P = COc1cc(/C=C2\SC(=O)N(Cc3ccc(Cl)cc3)C2=O)ccc1OCc1ccncc1
Q = Cn1c(=O)n(C)c2cc(/C=C3\SC(=O)N(Cc4ccccc4)C3=O)ccc21
# returns the entry with the larger pIC50; inputs P and Q Answer format: the label of the selected item.
P

a = COC(=O)c1ccc(COc2ccc(/C=C3\SC(=O)N(Cc4ccc([N+](=O)[O-])cc4)C3=O)cc2OC)cc1
b = CCOc1cc(/C=C2\SC(=O)N(Cc3ccccc3)C2=O)ccc1OCc1ccc(C(=O)O)cc1
# returns the entry with the larger pIC50; inputs a and b Answer format: the label of the selected item.
b

---

target: Autotaxin (Homo sapiens); assay: Inhibition of 6x-histidine-tagged human recombinant ATX expressed in HEK293 cells assessed as residual activity using bisP-nitrophenyl phosphate as a substrate; values are per cent of control
ASSAY_READOUT: residual activity (%)

Sample records with residual activity:
STRUCTURE_AS_SMILES: O=C1S/C(=C\c2ccc(OCc3ccccc3)cc2)C(=O)N1Cc1ccc(F)cc1
UNIT_ABBREVIATION: %
residual activity: 37

STRUCTURE_AS_SMILES: O=C1S/C(=C\c2ccc(OCc3ccccc3)cc2)C(=O)N1Cc1ccccc1
UNIT_ABBREVIATION: %
residual activity: 32

STRUCTURE_AS_SMILES: COc1cc(/C=C2\SC(=O)N(Cc3ccc(F)cc3)C2=O)ccc1OCc1ccc(C(=O)O)cc1
UNIT_ABBREVIATION: %
residual activity: 10

STRUCTURE_AS_SMILES: COC(=O)c1ccc(COc2ccc(/C=C3\SC(=O)N(Cc4ccc([N+](=O)[O-])cc4)C3=O)cc2OC)cc1
UNIT_ABBREVIATION: %
residual activity: 31

STRUCTURE_AS_SMILES: COc1cc(/C=C2\SC(=O)N(Cc3ccc(C(C)(C)C)cc3)C2=O)ccc1OCc1ccc(C(=O)O)cc1
UNIT_ABBREVIATION: %
residual activity: 33

STRUCTURE_AS_SMILES: COc1cc(/C=C2\SC(=O)N(Cc3ccc(F)cc3)C2=O)ccc1OCc1ccccc1
UNIT_ABBREVIATION: %
residual activity: 12

STRUCTURE_AS_SMILES: COc1cc(/C=C2\SC(=O)N(Cc3ccc([N+](=O)[O-])cc3)C2=O)ccc1OCc1ccc(C(=O)O)cc1
UNIT_ABBREVIATION: %
residual activity: 33

STRUCTURE_AS_SMILES: COC(=O)c1ccc(COc2ccc(/C=C3\SC(=O)N(Cc4ccccc4)C3=O)cc2OC)cc1
UNIT_ABBREVIATION: %
residual activity: 24

A = CCCCCCCC/C=C\CCCCCCCC(=O)OC[C@@H](O)COP(=O)(O)O
B = COc1cc(/C=C2\SC(=O)N(Cc3ccccc3)C2=O)ccc1OCc1ccc(C(=O)O)cc1
# returns the entry with the larger residual activity; inputs A and B Answer format: the label of the selected item.
A
